system.tested: T1, human CLL1 ECD (65-265) (human, UniProt Q5QGZ9 65-265)
T1 construct: Expressed in 293-F cells and purified by IMAC; also called huCLL1; recombinant human CLL1 protein
T1 sequence: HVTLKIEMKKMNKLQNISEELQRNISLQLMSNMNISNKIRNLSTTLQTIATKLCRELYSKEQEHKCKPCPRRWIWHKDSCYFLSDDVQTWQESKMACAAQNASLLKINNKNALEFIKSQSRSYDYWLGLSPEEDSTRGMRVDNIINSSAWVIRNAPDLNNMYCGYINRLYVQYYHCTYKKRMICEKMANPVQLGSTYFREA
assay.text: SPR (Biacore T200), sdAb supernatant, recombinant human CLL1
Give pKd for every item shown.
Remember the convention: pKd equals -log10 of concentration in molar.

Value of measured pKd for the entry AS83431 sdAb (VHH, Camel sdAb tested as E. coli culture supernatant; not shown: C-terminal His-tag encoded by the soluble expression vector) VHH: QVRLVESGGGSVQSGGSLRLSCAASGYARSSTCLGWFRQAPGKEVEGVAIIGRDGSTGYADSVKGRFTISQDNAKNTLYLHMDSLKPEDTAMYYCAAVEGGCEVSEGTGEQQLAYWGQGTQVTVSS : 9.43

Value of measured pKd for the entry AS82658 sdAb (VHH, Camel sdAb tested as E. coli culture supernatant; not shown: C-terminal His-tag encoded by the soluble expression vector) VHH: QVQLVESGGGSVQAGGALSLSCAASGYTVRIDYMGWYRQTPGKGREPVATIASNGGTAYADSVEGRFTISQDNAKNSVYLQMNTLKPGDTAMYYCAAGTWPTLTYFGQGTQVTVSS : 8.80
